- System: L929 cells
- assayProtocol: MTT cytotoxicity assay, L929 healthy cells
- Type: cell-based
- condition: L929, 24 h incubation, healthy mouse fibroblast
Rule: measured IC50 below 30 µM gets 1 (yes); anything equal to or greater than 30 µM gets 0 (no).

# compound, measuredOn, labelClass
measured = [
    ("Cc1ccc(C(=O)Nc2nc3ccccc3s2)cc1", "L929 cells", "1 (yes)"),
    ("O=C(Nc1nc2ccccc2s1)c1ccc(F)cc1", "L929 cells", "1 (yes)"),
    ("O=C(Nc1nc2ccccc2s1)c1ccco1", "L929 cells", "1 (yes)"),
    ("COc1cccc2c1C(=O)c1c(O)c3c(c(O)c1C2=O)C[C@@](O)(C(=O)CO)C[C@@H]3O[C@H]1C[C@H](N)[C@H](O)[C@H](C)O1 [Doxorubicin, reference compound]", "L929 cells", "1 (yes)"),
    ("O=C(NCc1nc2ccccc2s1)c1ccccc1 [Compound 10, N‐(Benzo[d]thiazol‐2‐ylmethyl) benzamide]", "L929 cells", "0 (no)"),
    ("O=C(NCc1nc2ccccc2s1)c1ccc(Br)cc1", "L929 cells", "0 (no)"),
    ("COc1ccc(C(=O)Nc2nc3ccccc3s2)cc1", "L929 cells", "1 (yes)"),
    ("O=C(Nc1nc2ccccc2s1)c1ccc(Br)cc1", "L929 cells", "0 (no)"),
]

Hi there! Is IC50 for O=C(Cc1ccccc1)Nc1nc2ccccc2s1 below 30 µM, do you know?
0 (no)

Determine if O=C(NCc1nc2ccccc2s1)c1ccco1 shows IC50 strictly lower than 30 µM.
1 (yes)

Strictly below 30 µM: is that where IC50 of O=C(NCc1nc2ccccc2s1)c1ccc(Cl)cc1 sits?
0 (no)

Dear reviewer, please state whether O=C(Nc1nc2ccccc2s1)c1cccs1 has IC50 strictly beneath 30 µM.
0 (no)

I wonder whether O=C(NCc1nc2ccccc2s1)c1ccc(F)cc1 has IC50 below 30 µM. Can you tell?
0 (no)

hey, is IC50 for O=C(Nc1nc2ccccc2s1)c1ccc(Cl)cc1 lower than 30 µM or not?
1 (yes)

* * *

- System: L929 cells
- assayProtocol: MTT cytotoxicity assay, L929 healthy cells
- Format: cell-based
- condition: 24 h incubation, healthy mouse fibroblast
- Description: Cell culture experiments were performed to assess the antiproliferative efficacy of the synthesized benzothiazole compounds on the MCF7 and MDA‐MB‐231 cell lines. […] The incubated cells were then treated with 20 µL of MTT solution and incubated at 37°C for 4 h. […] The absorbance was measured at 570 nm using an ELISA reader. […] At the end of the experiment, the device calculated the IC50 value for each well, and the average values were recorded. […]
metricName: IC50 (µM)
Hi! Could you send only the number? It should be in µM, unit omitted.

# molecule, unitString, IC50
records = [
    ("N.N.[Cl][Pt][Cl] [Cisplatin, reference compound]", "µM", 36),
    ("O=C(Nc1nc2ccccc2s1)c1ccc(C(F)(F)F)cc1", "µM", 23.9),
    ("COc1cccc(CC(=O)NCc2nc3ccccc3s2)c1", "µM", 27.7),
]

Please report the measured IC50 for O=C(Cc1cccs1)Nc1nc2ccccc2s1
135

Please report the measured IC50 for O=C(Cc1ccc(F)cc1)Nc1nc2ccccc2s1
211

Read off the recorded IC50 for O=C(Cc1ccc(Cl)cc1)NCc1nc2ccccc2s1
32.9

Check the records and state IC50 for O=C(Cc1ccc(Cl)cc1)Nc1nc2ccccc2s1
54

Name the recorded IC50 of the item COc1ccc(CC(=O)Nc2nc3ccccc3s2)cc1 in your answer.
81.5

Using known records, supply IC50 for O=C(NCc1nc2ccccc2s1)c1ccc(C(F)(F)F)cc1
32.8

* * *

- Test system: MDA‐MB‐231 cells
- assayProtocol: MTT antiproliferative assay, MDA-MB-231
- Assay type: cell-based, human
- condition: Selectivity index = L929 IC50 / MDA‐MB‐231 IC50 (24 h)
Rule: Selectivity MDA‐MB‐231 of 2 or more gives yes (1); anything lower gives no (0).

Answered examples (5):
# compound, labelClass
rows = [
    ("O=C(Cc1cccs1)NCc1nc2ccccc2s1", "no (0)"),
    ("O=C(NCc1nc2ccccc2s1)c1ccc(C(F)(F)F)cc1", "yes (1)"),
    ("O=C(Nc1nc2ccccc2s1)c1cccs1", "yes (1)"),
    ("O=C(NCc1nc2ccccc2s1)c1ccc(F)cc1", "yes (1)"),
    ("O=C(Nc1nc2ccccc2s1)c1ccc(C(F)(F)F)cc1", "yes (1)"),
]

In plain terms: is recorded Selectivity MDA‐MB‐231 at least 2 for COc1ccc(C(=O)NCc2nc3ccccc3s2)cc1 ?
no (0)

Does COc1cccc2c1C(=O)c1c(O)c3c(c(O)c1C2=O)C[C@@](O)(C(=O)CO)C[C@@H]3O[C@H]1C[C@H](N)[C@H](O)[C@H](C)O1 [Doxorubicin, reference compound] have a reported Selectivity MDA‐MB‐231 of at least 2?
yes (1)

Please indicate if the recorded Selectivity MDA‐MB‐231 for COc1cccc(CC(=O)Nc2nc3ccccc3s2)c1 meets or exceeds 2.
yes (1)

Hi team, for O=C(NCc1nc2ccccc2s1)c1ccco1 , is the recorded Selectivity MDA‐MB‐231 at or above 2?
yes (1)

Dear colleague, could you confirm whether O=C(NCc1nc2ccccc2s1)c1ccc(Cl)cc1 has Selectivity MDA‐MB‐231 at or above 2?
yes (1)

Answer whether Selectivity MDA‐MB‐231 of Cc1ccc(C(=O)Nc2nc3ccccc3s2)cc1 is greater than or equal to 2.
no (0)

Given the entry COc1ccc(C(=O)Nc2nc3ccccc3s2)cc1 , answer whether its Selectivity MDA‐MB‐231 meets or surpasses 2.
no (0)

Answer whether Selectivity MDA‐MB‐231 of O=C(Nc1nc2ccccc2s1)c1ccc(F)cc1 is greater than or equal to 2.
no (0)

Form field: Selectivity MDA‐MB‐231 at least 2? Entry: O=C(NCc1nc2ccccc2s1)c1ccccc1 [Compound 10, N‐(Benzo[d]thiazol‐2‐ylmethyl) benzamide]
yes (1)

Hello, I need to know if N.N.[Cl][Pt][Cl] [Cisplatin, reference compound] has measured Selectivity MDA‐MB‐231 not below 2. Thanks!
no (0)

* * *

- System: MDA‐MB‐231 cells
- assayProtocol: MTT antiproliferative assay, MDA-MB-231
- Format: cell-based, human
- condition: MTT, 24 h incubation
metricName: pIC50
Here pIC50 is given on a logarithmic scale as minus log10 of the concentration in mol/L.

// below: answered compounds
# compound, pIC50
records = [
    ("O=C(NCc1nc2ccccc2s1)c1ccc(C(F)(F)F)cc1 [Compound 13]", 5.00),
    ("COc1cccc(CC(=O)NCc2nc3ccccc3s2)c1 [Compound 26]", 4.80),
    ("N.N.[Cl][Pt][Cl] [Cisplatin, reference compound]", 4.52),
    ("O=C(Cc1ccc(F)cc1)Nc1nc2ccccc2s1 [Compound 22]", 5.42),
]

Please give the documented pIC50 of COc1ccc(CC(=O)Nc2nc3ccccc3s2)cc1 [Compound 24]
4.89

* * *

- Test system: MDA‐MB‐231 cells
- assayProtocol: MTT antiproliferative assay, MDA-MB-231
- Assay type: cell-based, human
- condition: MTT, 24 h incubation
Reported IC50 values for a set of molecules
Report the value in µM with no unit label.

Worked examples follow.
# molecule, measuredOn, numericResult
data = [
    ("O=C(Cc1ccc(Cl)cc1)NCc1nc2ccccc2s1 [Compound 27]", "MDA‐MB‐231 cells", 14.7),
    ("O=C(Nc1nc2ccccc2s1)c1ccc(C(F)(F)F)cc1 [Compound 6]", "MDA‐MB‐231 cells", 10.9),
]

Find the measured IC50 of O=C(Cc1ccc(Cl)cc1)Nc1nc2ccccc2s1 [Compound 23] and report it.
7.04

Given COc1cccc(CC(=O)Nc2nc3ccccc3s2)c1 [Compound 21] , respond with its IC50.
6.42

Retrieve IC50 measured for O=C(Cc1cccs1)NCc1nc2ccccc2s1 [Compound 28] and print it.
18.8

Consider the molecule O=C(Cc1cccs1)Nc1nc2ccccc2s1 [Compound 25] and give its recorded IC50.
14.4

Respond only with IC50 recorded for COc1ccc(OC)c(CC(=O)Nc2nc3ccccc3s2)c1 [Compound 20]
16.1

* * *

- System: p38 MAPKα
- assayProtocol: p38 MAPK alpha ELISA, total level in treated MCF7 cells normalised to total protein (BCA)
- Assay type: cell-based, human
- condition: MCF7 cells exposed to compound
metricName: Total p38α MAPK levels (ng/μg protein)
Response body: numeric value in ng/μg protein, unit text excluded.

# compound, unitString, Total p38α MAPK levels
measured = [
    ("O=C(Cc1ccc(F)cc1)Nc1nc2ccccc2s1", "ng/μg protein", 3.952),
    ("O=C(Nc1nc2ccccc2s1)c1ccc(F)cc1", "ng/μg protein", 3.879),
    ("COc1cccc(CC(=O)Nc2nc3ccccc3s2)c1", "ng/μg protein", 1.333),
]

Return Total p38α MAPK levels (reported value) for this compound: O=C(Nc1nc2ccccc2s1)c1cccs1
0.43

Specify Total p38α MAPK levels for O=C(NCc1nc2ccccc2s1)c1cccs1 and stop.
0.199

Answer with the recorded Total p38α MAPK levels of O=C(Nc1nc2ccccc2s1)c1ccco1 only.
8.529

Provide Total p38α MAPK levels value for the following compound: O=C(Nc1nc2ccccc2s1)c1ccc(Cl)cc1
0.166

Assign Total p38α MAPK levels to the following record: Cc1ccc(C(=O)NCc2nc3ccccc3s2)cc1
1.34

Give the reported Total p38α MAPK levels for this compound. O=C(Cc1cccs1)NCc1nc2ccccc2s1
2.542

Determine from records and report Total p38α MAPK levels for O=C(NCc1nc2ccccc2s1)c1ccccc1 [Compound 10, N‐(Benzo[d]thiazol‐2‐ylmethyl) benzamide]
0.535

In one line, give reported Total p38α MAPK levels of the entry COc1ccc(C(=O)NCc2nc3ccccc3s2)cc1 .
6.411
